Data origin: paper PMC10539501

Below are Half lives values measured for human liver microsomes.
Starred links: 1 amine or outer side, 2 acyl side, 3 side chain; linkers in the order of their positions; H or OH if unused. Non-standard residues stand in square brackets, D forms with d. Residues, ends and D or L forms follow the SMILES beside them. X5 = CC(C)C[C@H](NC(=S)[C@H](CC(C)C)N[*:1])C(=O)[*:2]; X4 = CC(C)C[C@H](N[*:1])C(=S)N1CCC[C@@H]1C(=O)[*:2]; NMeL = CN[C@@H](CC(C)C)C(=O)O; dNMeL = CN[C@H](CC(C)C)C(=O)O

[
  {
    "compound": "CC(C)C[C@@H]1NC(=O)[C@H](Cc2ccc(O)cc2)NC(=O)[C@H]2CCCN2C(=O)[C@H](CC(C)C)NC(=S)[C@H](CC(C)C)NC(=O)[C@@H](CC(C)C)NC1=O [10b] (cyclo(L[dL][X5][dP]Y))",
    "Half lives": 19.0
  },
  {
    "compound": "CC(C)C[C@@H]1NC(=O)[C@H](Cc2ccc(O)cc2)NC(=O)[C@H]2CCCN2C(=S)[C@H](CC(C)C)NC(=O)[C@H](CC(C)C)NC(=O)[C@@H](CC(C)C)NC1=O [10c] (cyclo(L[dL]L[X4]Y))",
    "Half lives": 13.8
  },
  {
    "compound": "CC(C)C[C@@H]1NC(=O)[C@@H](CC(C)C)N(C)C(=O)[C@H](CC(C)C)NC(=O)[C@H](Cc2ccc(O)cc2)NC(=O)[C@H]2CCCN2C(=O)[C@H](CC(C)C)NC1=O [10g] (cyclo(LL[dP]YL[dNMeL]))",
    "Half lives": 16.8
  },
  {
    "compound": "CC(C)C[C@@H]1NC(=O)[C@H](Cc2ccc(O)cc2)NC(=O)[C@H]2CCCN2C(=O)[C@H](CC(C)C)N(C)C(=O)[C@H](CC(C)C)NC(=O)[C@@H](CC(C)C)NC1=O [10i] (cyclo(L[NMeL][dP]YL[dL]))",
    "Half lives": 12.6
  }
]

// moving on: another record for Half lives
Req: Find the measured Half lives of CC(C)C[C@@H]1NC(=O)[C@H](Cc2ccc(O)cc2)NC(=O)[C@H]2CCCN2C(=O)[C@H](CC(C)C)NC(=O)[C@H](CC(C)C)N(C)C(=O)[C@@H](CC(C)C)NC1=O [10h] (cyclo(L[dL][NMeL]L[dP]Y)) and report it.
Resp: 28.7

====

Assay type: physicochemical
Starred links: 1 amine or outer side, 2 acyl side, 3 side chain; linkers in the order of their positions; H or OH if unused. Non-standard residues stand in square brackets, D forms with d. Residues, ends and D or L forms follow the SMILES beside them. AlaΨ(CSNH)Ala = C[C@H](NC(=S)[C@H](C)N[*:1])C(=O)[*:2]; X15 = CC(C)C[C@@H](NC(=S)[C@H]1CCCN1[*:1])C(=O)[*:2]; X16 = CC(C)C[C@H](N[*:1])C(=S)N[C@H](C)C(=O)[*:2]
Reported % solubility is given for each of the following molecules.
Answer in %, number only, no unit symbol.

Some molecules with known % solubility results, for comparison:
[
  {
    "molecule": "CC(C)C[C@@H]1NC(=O)[C@@H]2CCCN2C(=O)[C@@H](C)NC(=S)[C@H](CC(C)C)NC(=O)[C@@H](CC(C)C)NC(=O)[C@H]2CCCN2C(=O)[C@H](CC(C)C)NC(=O)[C@@H](CC(C)C)NC1=O [12e] (cyclo([dL]L[dP][dL][X16]PL))",
    "experimental-endpoint": "% solubility",
    "units-of-measure": "%",
    "reported": 41
  },
  {
    "molecule": "CC(C)C[C@@H]1NC(=O)[C@@H](CC(C)C)NC(=S)[C@H]2CCCN2C(=O)[C@H](CC(C)C)NC(=O)[C@@H](CC(C)C)NC(=O)[C@H](CC(C)C)NC(=O)[C@@H]2CCCN2C(=O)[C@@H](C)NC1=O [12c] (cyclo(L[dA]PL[dL]L[X15]))",
    "experimental-endpoint": "% solubility",
    "units-of-measure": "%",
    "reported": 15
  }
]

Lab note: next molecule to report on.
Req: Indicate its recorded % solubility; the molecule in question is CC[C@H](C)[C@@H]1NC(=O)[C@@H]2CCCN2C(=O)[C@H]([C@@H](C)CC)NC(=O)[C@@H]2CCCN2C(=O)[C@H](Cc2ccccc2)NC(=O)[C@H](C)NC(=S)[C@H](C)NC1=O [11b] (cyclo(FPIPI[AlaΨ(CSNH)Ala]))
Resp: 93

====

Measured remaining at 10 min accompanies every entry in the list below.
Test: in vitro
Conditions: human, microsomes
Starred links: 1 amine or outer side, 2 acyl side, 3 side chain; linkers in the order of their positions; H or OH if unused. Non-standard residues stand in square brackets, D forms with d. Residues, ends and D or L forms follow the SMILES beside them. X6 = O=C([C@H](Cc1ccc(O)cc1)NC(=S)[C@H]1CCCN1[*:1])[*:2]; X3 = CC(C)C[C@H](N[*:1])C(=S)N[C@H](CC(C)C)C(=O)[*:2]; X5 = CC(C)C[C@H](NC(=S)[C@H](CC(C)C)N[*:1])C(=O)[*:2]; X4 = CC(C)C[C@H](N[*:1])C(=S)N1CCC[C@@H]1C(=O)[*:2]; NMeY = CN[C@@H](Cc1ccc(O)cc1)C(=O)O
Output spec: scalar in %, unitless text.

The examples below pair each entry with its known result.
[
  {
    "compound": "CC(C)C[C@@H]1NC(=O)[C@H](Cc2ccc(O)cc2)NC(=S)[C@H]2CCCN2C(=O)[C@H](CC(C)C)NC(=O)[C@H](CC(C)C)NC(=O)[C@@H](CC(C)C)NC1=O [10d] (cyclo(LL[X6]L[dL]))",
    "experimental-endpoint": "remaining at 10 min",
    "reported": 71
  },
  {
    "compound": "CC(C)C[C@@H]1NC(=O)[C@H](Cc2ccc(O)cc2)NC(=O)[C@H]2CCCN2C(=O)[C@H](CC(C)C)NC(=S)[C@H](CC(C)C)NC(=O)[C@@H](CC(C)C)NC1=O [10b] (cyclo(L[dL][X5][dP]Y))",
    "experimental-endpoint": "remaining at 10 min",
    "reported": 65
  },
  {
    "compound": "CC(C)C[C@@H]1NC(=O)[C@@H](CC(C)C)NC(=S)[C@H](CC(C)C)NC(=O)[C@H](Cc2ccc(O)cc2)NC(=O)[C@H]2CCCN2C(=O)[C@H](CC(C)C)NC1=O [10f] (cyclo(LL[dP]Y[X3]))",
    "experimental-endpoint": "remaining at 10 min",
    "reported": 71
  },
  {
    "compound": "CC(C)C[C@@H]1NC(=O)[C@@H](CC(C)C)NC(=O)[C@H](CC(C)C)NC(=O)[C@H](Cc2ccc(O)cc2)N(C)C(=O)[C@H]2CCCN2C(=O)[C@H](CC(C)C)NC1=O [10j] (cyclo(LL[dP][NMeY]L[dL]))",
    "experimental-endpoint": "remaining at 10 min",
    "reported": 77
  }
]

Field: next compound
Req: Specify measured remaining at 10 min for CC(C)C[C@@H]1NC(=O)[C@H](Cc2ccc(O)cc2)NC(=O)[C@H]2CCCN2C(=S)[C@H](CC(C)C)NC(=O)[C@H](CC(C)C)NC(=O)[C@@H](CC(C)C)NC1=O [10c] (cyclo(L[dL]L[X4]Y)) .
Resp: 56
